Give OD450 for every item shown.
Biological target: T1, human MSLN-R3-his protein (human, UniProt Q13421 487-598)
T1 construct: it is put last here; also called human MSLN-R3 protein; hMSLN-R3-his; not shown: His tag
T1 sequence (Q13421 495-606): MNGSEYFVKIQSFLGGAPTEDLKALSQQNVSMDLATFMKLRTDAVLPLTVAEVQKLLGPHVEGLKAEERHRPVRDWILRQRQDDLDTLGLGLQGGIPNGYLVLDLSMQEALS
Test: ELISA on coated antigen, antibody 0.02 nM

I would be grateful if you could share the reported OD450 for S009-F7.6.17 (antibody, human IgG1, kappa, V domains shown, Human-murine chimeric antibody, human IgG1 heavy and kappa light constant regions) VH: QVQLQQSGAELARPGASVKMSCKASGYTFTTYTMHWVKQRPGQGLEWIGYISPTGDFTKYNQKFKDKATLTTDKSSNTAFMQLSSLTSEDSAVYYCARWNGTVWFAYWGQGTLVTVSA VL: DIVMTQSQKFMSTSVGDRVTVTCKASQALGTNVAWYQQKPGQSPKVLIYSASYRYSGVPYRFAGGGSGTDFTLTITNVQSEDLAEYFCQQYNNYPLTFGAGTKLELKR . 1.55 OD

I would be grateful if you could share the reported OD450 for S009-F7.66.12 (antibody, human IgG1, kappa, V domains shown, Human-murine chimeric antibody, human IgG1 heavy and kappa light constant regions) VH: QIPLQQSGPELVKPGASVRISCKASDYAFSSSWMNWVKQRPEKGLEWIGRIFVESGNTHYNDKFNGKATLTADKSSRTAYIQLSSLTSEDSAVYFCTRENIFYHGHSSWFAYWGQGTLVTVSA VL: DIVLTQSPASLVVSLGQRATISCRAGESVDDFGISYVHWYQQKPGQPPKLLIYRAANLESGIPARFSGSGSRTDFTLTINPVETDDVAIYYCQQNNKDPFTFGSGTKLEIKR . 0.04 OD

I would be grateful if you could share the reported OD450 for S009-F7.12.13 (antibody, human IgG1, kappa, V domains shown, Human-murine chimeric antibody, human IgG1 heavy and kappa light constant regions) VH: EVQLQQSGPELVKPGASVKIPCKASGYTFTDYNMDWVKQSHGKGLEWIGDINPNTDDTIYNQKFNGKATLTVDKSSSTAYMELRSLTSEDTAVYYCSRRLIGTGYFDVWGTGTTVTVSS VL: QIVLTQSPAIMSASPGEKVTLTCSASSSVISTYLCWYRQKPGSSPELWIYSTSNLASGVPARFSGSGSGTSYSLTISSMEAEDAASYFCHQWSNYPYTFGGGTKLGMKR . 0.36 OD

I would be grateful if you could share the reported OD450 for S009-F7.69.8 (antibody, human IgG1, kappa, V domains shown, Human-murine chimeric antibody, human IgG1 heavy and kappa light constant regions) VH: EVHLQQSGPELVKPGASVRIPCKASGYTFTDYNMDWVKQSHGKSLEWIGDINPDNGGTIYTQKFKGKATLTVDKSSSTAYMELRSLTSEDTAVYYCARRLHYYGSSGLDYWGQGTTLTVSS VL: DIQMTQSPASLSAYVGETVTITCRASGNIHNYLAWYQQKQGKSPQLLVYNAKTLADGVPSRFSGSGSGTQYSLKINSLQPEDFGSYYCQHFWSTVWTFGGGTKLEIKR . 0.38 OD
